Target: human OPRM1 (μ, MOR) (Homo sapiens)
Construct: host or cells: CHO-K1
Sequence (P35372 whole entry): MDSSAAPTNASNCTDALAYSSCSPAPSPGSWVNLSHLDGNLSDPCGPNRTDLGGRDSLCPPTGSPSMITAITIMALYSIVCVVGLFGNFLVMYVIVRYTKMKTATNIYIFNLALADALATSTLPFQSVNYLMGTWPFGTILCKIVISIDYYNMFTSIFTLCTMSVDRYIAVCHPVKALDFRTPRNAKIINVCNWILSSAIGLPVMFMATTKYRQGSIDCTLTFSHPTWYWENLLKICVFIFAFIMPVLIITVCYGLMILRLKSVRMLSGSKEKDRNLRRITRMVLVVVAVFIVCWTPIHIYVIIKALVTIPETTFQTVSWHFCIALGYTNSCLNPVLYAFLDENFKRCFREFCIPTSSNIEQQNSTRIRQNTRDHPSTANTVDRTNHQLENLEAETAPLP
Experiment: cell-based
Details: OPRM1, read-out: cAMP Emax
Counter-ions that a name gives are not always drawn.
So basically: is Emax under 80%? Then Y. Not under? Then N.

[in] Criterion: Emax strictly below 80%. Is it met by CNC(CNC(=O)N1Cc2ccc(F)cc2C1)c1ccc(OC)cc1 (centres unmarked) [Compound 82] ?
[out] N

[in] Same question, CN(C)C1(CNC(=O)N2Cc3ccc(F)cc3C2)CCCCC1 [Compound 46] this time
[out] N

[in] Same question, CN(C)C(CNC(=O)NC1CCc2ccccc2C1)c1ccsc1 (centres unmarked) [Compound 10a, hydrochloride] this time
[out] N

[in] Same question, CN(C)C(CNC(=O)N1Cc2ccccc2C1)c1ccccc1 (single isomer, unassigned) [Compound 57] this time
[out] N

[in] Same question, CN(C)C(CNC(=O)N1CCCc2ccccc21)c1ccsc1 (centres unmarked) [Compound 9a, hydrochloride] this time
[out] Y

[in] Same question, COc1ccc(C(CNC(=O)N2CC[C@@H](c3ccccc3)C2)N(C)C)cc1 (some centres unmarked) [Compound 42] this time
[out] Y

[in] Same question, COc1ccc(C(CNC(=O)N2Cc3ccc(F)cc3C2)N(C)C)cc1 (centres unmarked) [Compound 16a, hydrochloride] this time
[out] N

[in] Same question, COc1ccc(C(CNC(=O)N2CC[C@H](c3ccccc3)C2)N(C)C)cc1 (some centres unmarked) [Compound 43] this time
[out] Y

// data source = patent US20220315567A1
